Recorded potency estimated from few doses for the following compounds
# System: ERN2
# Design: species or system human, MV4-11 + K-562 + COLO205 + SK-N-BE2 + OVCAR-8
# condition-notes: read-out: apparent Kd; compound concentrations:100 nM and 1000 nM (sheet 'Samples'); n = 1
Could you give me the number in nM? Just the number is fine.

Previously resolved entries follow.
INSERT INTO measurements (compound, u, val) VALUES
  ('Nc1nc(-c2ccc3c(N)n[nH]c3c2)cc(N2CCCC(NC(=O)c3ccccc3)C2)n1 (stereo not shown) [GSK2286775B]', 'nM', 1580),
  ('C[C@@H](c1ccccc1)[C@@H](C(=O)Nc1ccc(I)cc1F)N1C(=O)N[C@H](c2ccc(OC[C@H](O)CO)cc2)C1=O [RO5068760-000]', 'nM', 1170),
  ('CNc1nc(-c2ccc3c(N)n[nH]c3c2)cc(N2C[C@@H](C(=O)NC3CCCCC3)CC[C@H]2C)n1 [GSK2334470]', 'nM', 1440);

**Query** I'd like to know its potency estimated from few doses. The compound in question is Cc1cccc(Nc2nc(N[C@H]3CCCC[C@H]3N)ncc2C(N)=O)c1.Cl [GSK986310C]
**Result** 1400

###

# Test system: ROCK1
# Design: species or system human, MV4-11 + K-562 + COLO205 + SK-N-BE2 + OVCAR-8
# condition-notes: read-out: apparent Kd; compound concentrations:100 nM and 1000 nM (sheet 'Samples'); n = 1
quantity: potency estimated from few doses (nM)
Could you give me the number in nM? Just the number is fine.

Previously resolved entries follow.
INSERT INTO results (molecule, u, val) VALUES
  ('CCn1c(-c2nonc2N)nc2cncc(Br)c21', 'nM', 181),
  ('C[C@@H]1CC[C@H](C(=O)NC2CCCCC2)CN1c1cc(-c2ccc3c(N)n[nH]c3c2)nc(N)n1 [GSK2291363A]', 'nM', 2010);

**Query** I'd like to know its potency estimated from few doses. The molecule in question is Cl.Cl.NC[C@H](CC1CCCCC1)NC(=O)c1ccc(-c2ccnc3[nH]ccc23)s1.NC[C@H](CC1CCCCC1)NC(=O)c1ccc(-c2ccnc3[nH]ccc23)s1 [GSK1581428A]
**Result** 29.2

###

# Test system: CDK7
# Set-up: species or system human, MV4-11 + K-562 + COLO205 + SK-N-BE2 + OVCAR-8
# condition-notes: read-out: apparent Kd; compound concentrations:100 nM and 1000 nM (sheet 'Samples'); n = 1
quantity: potency estimated from few doses (nM)
Could you give me the number in nM? Just the number is fine.

INSERT INTO measurements (compound, val) VALUES
  ('COc1cccc(F)c1C(=O)c1cnc(NC2CCN(S(C)(=O)=O)CC2)nc1N', 812),
  ('CN1CCC(C(=O)Nc2n[nH]c3nc(-c4ccc(O)cc4)c(Br)cc23)CC1.O=C(O)/C=C\C(=O)O', 732);

**Query** State its potency estimated from few doses on CDK7: O=C1NC(=O)C(N2CCc3ccccc32)=C1c1ccccc1Cl
**Result** 93.7

###

# Tested on: RPS6KA3
# Design: species or system human, MV4-11 + K-562 + COLO205 + SK-N-BE2 + OVCAR-8
# condition-notes: read-out: apparent Kd; compound concentrations:100 nM and 1000 nM (sheet 'Samples'); n = 1
quantity: potency estimated from few doses
Answer shape: numeric part, then the unit.

INSERT INTO results (molecule, quantity, val) VALUES
  ('CCCC(=O)Nc1n[nH]c2ncccc12', 'potency estimated from few doses', '1.89 µM'),
  ('Cc1ccc2c(-c3ccncc3)c(-c3ccc(F)cc3)nn2c1.Cl [GW461484A]', 'potency estimated from few doses', '1.95 µM'),
  ('Cc1occc1-c1nc(N)c(OC[C@@H](N)Cc2c[nH]c3ccccc23)cc1-c1cc2c(C)n[nH]c2cn1 [GSK1660450B]', 'potency estimated from few doses', '0.861 µM'),
  ('Cc1cnc(Nc2ccc(F)cc2Cl)nc1-c1c[nH]c(C(=O)N[C@H](CO)c2cccc(Cl)c2)c1 [Vertex11e]', 'potency estimated from few doses', '1.54 µM'),
  ('CNC(=O)c1ccccc1Nc1nc(Nc2ccc(N3CCOCC3)cc2)ncc1Cl.Cl [GSK1576028A]', 'potency estimated from few doses', '0.549 µM');

**Query** I'd like to know its potency estimated from few doses. The molecule in question is CN1C[C@@H]2Cn3c(c(C4=C(c5cn(C)c6ccccc56)C(=O)NC4=O)c4ccccc43)C[C@H]2C1.Cl
**Result** 2.1 µM

**Query** I'd like to know its potency estimated from few doses. The molecule in question is Cn1cc(C2=C(c3cn(CCCSC(=N)N)c4ccccc34)C(=O)NC2=O)c2ccccc21
**Result** 1.3 µM

###

# System: ACAD11
# Set-up: species or system human, MV4-11 + K-562 + COLO205 + SK-N-BE2 + OVCAR-8
# condition-notes: read-out: apparent Kd; compound concentrations:100 nM and 1000 nM (sheet 'Samples'); n = 1
Recorded potency estimated from few doses for the following compounds

Previously resolved entries follow.
INSERT INTO measurements (compound, val) VALUES
  ('CS(=O)(=O)Nc1ccc(-c2ccnc3[nH]ccc23)cc1 [GSK993273A]', '1040 nM'),
  ('COc1cc2ncn(-c3cc(O[C@H](C)c4ccccc4Cl)c(C(N)=O)s3)c2cc1OC [GSK237701A]', '756 nM'),
  ('CNCc1ccc(-c2cc(-c3nc(-c4ccc(S(=O)(=O)C(C)C)cc4)cnc3N)on2)cc1 [VE-822]', '321 nM'),
  ('Fc1ccc(-c2c(-c3ccncc3)[nH]c3nccnc23)cc1 [RO1155697-000]', '1300 nM'),
  ('Cl.Cl.NCC(C(=O)Nc1cc(Br)c(-c2ccnc3[nH]ccc23)s1)c1ccccc1.NCC(C(=O)Nc1cc(Br)c(-c2ccnc3[nH]ccc23)s1)c1ccccc1 (stereo not shown) [GSK1269851A]', '1260 nM'),
  ('Nc1nc(N)c2nc(-c3ccccc3)[nH]c2n1 [SKF-12778]', '1290 nM');

Please find the next compound below.
**Query** I'd like to know its potency estimated from few doses. The compound in question is COc1cc2ncn(-c3cc(OCc4ccncc4)c(C(N)=O)s3)c2cc1OC [GSK336313A]
**Result** 1400 nM

###

# Tested on: EPHB4
# Parameters: species or system human, MV4-11 + K-562 + COLO205 + SK-N-BE2 + OVCAR-8
# condition-notes: read-out: apparent Kd; compound concentrations:100 nM and 1000 nM (sheet 'Samples'); n = 1
quantity: potency estimated from few doses (nM)
Could you give me the number in nM? Just the number is fine.

Previously resolved entries follow.
INSERT INTO results (compound, val) VALUES
  ('CN1C[C@@H]2Cn3c(c(C4=C(c5cn(C)c6ccccc56)C(=O)NC4=O)c4ccccc43)C[C@H]2C1.Cl', 15.9),
  ('Cl.Cl.NCC(C(=O)Nc1cc(Br)c(-c2ccnc3[nH]ccc23)s1)c1ccccc1.NCC(C(=O)Nc1cc(Br)c(-c2ccnc3[nH]ccc23)s1)c1ccccc1 (stereo not shown) [GSK1269851A]', 54.6),
  ('CC(C)N1CCC(n2cnc(-c3ccc(F)cc3)c2-c2ccnc(N)n2)CC1', 314),
  ('O=C1NC(=O)C(N2CCc3ccccc32)=C1c1ccccc1Cl', 129),
  ('Cl.Cn1c(=O)c(Cc2ccc(F)cc2F)cc2cnc(NC3CCOCC3)nc21', 268),
  ('COc1cc2ncn(-c3cc(OCCCc4ccccc4)c(C(N)=O)s3)c2cc1OC [GSK205189A]', 636);

Please find the next compound below.
**Query** State its potency estimated from few doses on EPHB4: NCCNS(=O)(=O)c1ccc(-c2ccnc3[nH]ccc23)cc1 [GSK977617A]
**Result** 171

###

# Test system: MAP4K2
# Parameters: species or system human, MV4-11 + K-562 + COLO205 + SK-N-BE2 + OVCAR-8
# condition-notes: read-out: apparent Kd; compound concentrations:100 nM and 1000 nM (sheet 'Samples'); n = 1
quantity: potency estimated from few doses (nM)
Could you give me the number in nM? Just the number is fine.

INSERT INTO results (compound, val) VALUES
  ('O=C(Nc1n[nH]c2nc(-c3ccccc3O)ccc12)C1CC1', 1460),
  ('CS(=O)(=O)Cc1ccc(Nc2nccc(-c3c(-c4cccc(NC(=O)C5CCCCC5)c4)nn4ncccc34)n2)cc1 [GSK350559A]', 1890),
  ('COc1cc2ncn(-c3cc(OCc4sccc4Cl)c(C(N)=O)s3)c2cc1OC [GSK448459A]', 827);

Please find the next compound below.
**Query** State its potency estimated from few doses on MAP4K2: Cc1cccc(-c2nc(Nc3ccncc3)c3sccc3n2)n1 [GW869641X]
**Result** 669

Data origin, for the record: paper PMC11062922
